Test system: U2OS
Test: Multiplex assay against U2OS
Format: toxicity, cell-based
Conditions: human, 24 h, 1 µM, compound concentration 1 uM, replicate 2
Output schema: class label derived from Population Mitochondria Different-Phenotype (%). Mapping: low: < 20%; mid: ≥ 20% and < 30%; high: ≥ 30%

Solved cases below.
>  <COMPOUND>
Cl.Oc1ccc2c3c1O[C@H]1c4[nH]c5c(c4C[C@@]4(O)[C@@H](C2)N(CC2CC2)CC[C@]314)C[C@@]1(O)[C@H]2Cc3ccc(O)c4c3[C@@]1(CCN2CC1CC1)[C@H]5O4

>  <GROUP LABEL>
low

$$$$
>  <COMPOUND>
CCN1CCN(c2ccc(Nc3cc(N(C)C(=O)Nc4c(Cl)c(OC)cc(OC)c4Cl)ncn3)cc2)CC1 [INFIGRATINIB]

>  <GROUP LABEL>
high

$$$$
>  <COMPOUND>
CN1CCC(=C2c3ccccc3CC(=O)c3sccc32)CC1.O=C(O)/C=C/C(=O)O [KETOTIFEN FUMARATE]

>  <GROUP LABEL>
low

$$$$
>  <COMPOUND>
NC(=O)c1cccc(-c2cc(Nc3ccc(OC(F)(F)F)cc3)ncn2)c1

>  <GROUP LABEL>
high

$$$$
>  <COMPOUND>
CN[C@@H]1C[C@H]2O[C@@](C)([C@@H]1OC)n1c3ccccc3c3c4c(c5c6ccccc6n2c5c31)C(=O)NC4 [STAUROSPORINE]

>  <GROUP LABEL>
high

$$$$

Form field 'band' for CCn1cc(-c2ccnc3[nH]c(-c4cccc(CN(C)C)c4)cc23)c(-c2ccc(NC(=O)N(C)C)cc2)n1 [GSK-1070916]
high

Form field 'band' for CCCS(=O)(=O)Nc1ccc(F)c(C(=O)c2c[nH]c3ncc(Cl)cc23)c1F [PLX-4720]
mid

Form field 'band' for CN1CCN(C(=O)C(C)(C)c2ccc(C(=O)Nc3cn4cc(-c5cc(C(C)(C)C)cc(C(C)(C)C)c5)ccc4n3)cc2)CC1 [T3-CLK-N]
mid

Form field 'band' for CCCS(=O)(=O)c1nc(NC2CC2)cc(-c2ccc3c(ccn3C3CC(C)(C)NC(C)(C)C3)c2)n1
mid

* * *

What Population Apoptotic (%) was measured for each of the following?
System: Fibroblast
Test: Multiplex assay against human fibroblast
Format: toxicity, cell-based
Settings: 24 h, 1 µM, compound concentration 1 uM, replicate 1
Give bare numbers, in %.

Consider the worked cases shown below.
>  <COMPOUND>
CNC(=O)c1ccc(Nc2nc(OC3CCCC3)c3c(-c4ccc5nc(C)oc5c4)c[nH]c3n2)c(OC)c1

>  <Population Apoptotic (%)>
67

$$$$
>  <COMPOUND>
COc1ccc(S(=O)(=O)N(CCO)c2ccccc2CN(C)C/C=C/c2ccc(Cl)cc2)cc1.O=P(O)(O)O

>  <Population Apoptotic (%)>
80

$$$$
>  <COMPOUND>
Cl.O=C(c1ccc(Nc2nccc(-c3cc4ccccc4s3)n2)cc1)N1CCC(N2CCCC2)CC1

>  <Population Apoptotic (%)>
76

$$$$
>  <COMPOUND>
CN1CCN(C(=O)C(C)(C)c2ccc(C(=O)Nc3cn4cc(-c5cc(C(C)(C)C)cc(C(C)(C)C)c5)ccc4n3)cc2)CC1

>  <Population Apoptotic (%)>
73

$$$$
>  <COMPOUND>
CCOC(=O)c1c(C)[nH]c2ccc3c(c12)CN1CCc2cc(OC)ccc2C1O3 (stereo not drawn)

>  <Population Apoptotic (%)>
62

$$$$
>  <COMPOUND>
Cc1ccc2nc(NCCN)c3ncc(C)n3c2c1.O=C(O)C(F)(F)F.O=C(O)C(F)(F)F

>  <Population Apoptotic (%)>
64

$$$$
>  <COMPOUND>
O=C1NC(=O)C(c2cnc3ccccn23)=C1c1cn2c3c(cc(F)cc13)CN(C(=O)N1CCCCC1)CC2

>  <Population Apoptotic (%)>
64

$$$$

Which Population Apoptotic (%) is listed for CCn1cc(-c2ccnc3[nH]c(-c4cccc(CN(C)C)c4)cc23)c(-c2ccc(NC(=O)N(C)C)cc2)n1 ?
70
